The following compounds are listed with their measured cell viability values.
- System: P12-Ichikawa
- method: cell viability relative to DMSO control; higher = less cytotoxic
- assayContext: RPMI 5 mM glucose + 10% dialyzed FBS; 48 h; 5.12 µM
Provide the reading as a plain figure in %.

INSERT INTO results (compound, unittext, readoutnumber) VALUES
  ('CC1CCC(C(=O)N(c2cc(C#CC(C)(C)C)sc2C(=O)O)C2CCC(O)CC2)CC1 (configuration not stated)', '%', 69.2),
  ('CC1=CC=CC=C1N2\C(=N/C3=C(C(=CC=C3)C)C2=O)C[N]4C=NC5=C4N=CN=C5N', '%', 70.2),
  ('ClC1=C(N\C2=N\CCN2)C3=NSN=C3C=C1', '%', 124),
  ('C/C=C1\NC(=O)[C@H]2CSSCC/C=C\[C@H](CC(=O)N[C@H](C(C)C)C(=O)N2)OC(=O)[C@H](C(C)C)NC1=O', '%', 3.15),
  ('COc1ccc(-c2cc3nccn3c(Nc3ncccc3C(N)=O)n2)cc1OC', '%', 114),
  ('C[C@]\12CC[C@H](O)CC1=C/CC3C2CC[C@@]\4(C)C3C\C=C4[N]5C=NC6=C5C=CC=C6 (some centres not stated)', '%', 107);

Enter reported cell viability observed with P12-Ichikawa for CN1[C@@H]2CC[C@H]1CC(OC(=O)c1c[nH]c3ccccc13)C2 (some centres not stated) 118

---

# key: entry, value: cell viability
- System: SEM cells
- method: cell viability relative to DMSO control; higher = less cytotoxic
- assayContext: RPMI 5 mM glucose + 10% dialyzed FBS; 48 h; 5.12 µM
Please give a number only; it is taken to be in %.

Use these answered entries as a reference point.
INSERT INTO results (molecule, readoutnumber) VALUES
  ('[NH2][Pt]1([NH2])[O]CC(=O)[O]1', 79),
  ('CCCCn1c(=O)n(Cc2ccccc2F)c(=O)c2nc(Cc3ccc(NC(C)=O)cc3)[nH]c21', 97.3),
  ('CCC(C)SSc1ncc[nH]1 (stereo not given)', 73.6),
  ('CCCC1=NC(=C2[N]1NC(=N\C2=O)/C3=CC(=CC=C3OCC)[S+]([O-])(=O)N4CCN(CC)CC4)C', 106);

What value of cell viability has been recorded for this entry: O=c1c(-c2ccc(O)cc2)coc2cc(O[C@@H]3O[C@H](CO)[C@@H](O)[C@H](O)[C@H]3O)ccc12 118

---

- Test system: SEM cells
- method: AUC of viability dose-response curve (% viability x log10 dose units); higher = less sensitive
- assayContext: HPLM + 10% dialyzed FBS; 48 h
reportedMetric: AUC of viability dose-response curve
# answer = number (no unit)

The following molecules have reported results that may help.
INSERT INTO measurements (molecule, reportedmetric, readoutnumber) VALUES
  ('C[C@](O)(COc1ccc(C#N)cc1)C(=O)Nc1ccc(C#N)c(C(F)(F)F)c1', 'AUC of viability dose-response curve', 388),
  ('OC(=O)C1=CC=C(NC2=NC3=C(C\N=C(/C4=CC(=CC=C34)Cl)C5=C(F)C=CC=C5F)C=N2)C=C1', 'AUC of viability dose-response curve', 389),
  ('NC(=O)c1cnc(N[C@@H]2CCCC[C@@H]2N)nc1Nc1cccc(-n2nccn2)c1', 'AUC of viability dose-response curve', 419),
  ('CC1=NN(c2ccc(C)c(C)c2)C(=O)/C1=N/Nc1cccc(-c2cccc(C(=O)O)c2)c1O', 'AUC of viability dose-response curve', 453),
  ('CCCCCOC(=O)NC\1=N\C(=O)N(\C=C1F)[C@@H]2O[C@H](C)[C@@H](O)[C@H]2O', 'AUC of viability dose-response curve', 468);

Return AUC of viability dose-response curve measured with SEM cells given this molecule: CC(N[C@H]1C[C@@H]1c1ccccc1)c1ccc2c(c1)OCCO2 (some centres not stated) 475

# repeat for OC1=CC=C(C=C1)\C2=C\OC3=C(C=CC(=C3)O)C2=O 472

---

- Test system: P12-Ichikawa
- method: cell viability relative to DMSO control; higher = less cytotoxic
- assayContext: HPLM + 10% dialyzed FBS; 48 h; 5.12 µM
reportedMetric: cell viability
The number alone won't do; follow it with the unit.

INSERT INTO measurements (molecule, reportedmetric, result) VALUES
  ('C\C1=C\C(=O)OC2=C1C=CC(=C2)O', 'cell viability', '106%'),
  ('O=C(NCC[S+](=O)([O-])c1ccc(C(F)(F)F)cn1)c1ccc(Cl)cc1', 'cell viability', '110%'),
  ('FC(F)(F)c1ccc(/C=C/c2nc(COc3ccc(CCCCn4ccnn4)cc3)co2)cc1', 'cell viability', '40.4%'),
  ('CN\1C(=O)/C(=C(\N=C1N2CCCC[S+]2([O-])=O)C(=O)NCC3=CC=C(F)C=C3)O', 'cell viability', '107%');

Recorded cell viability for COc1ccc(-c2cc3nccn3c(Nc3ncccc3C(N)=O)n2)cc1OC , please? 116%

Here is the next molecule: COc1ccc(Cc2ccc(NC(N)=O)cc2)cc1-c1cccc(Cl)c1 126%

Next molecule: OC(=O)C1=CC=C(NC2=NC3=C(C\N=C(/C4=CC(=CC=C34)Cl)C5=C(F)C=CC=C5F)C=N2)C=C1 27.1%

Let us now turn to COc1cccc2cc(-c3nc(C4CCC(C(=O)O)CC4)n4ncnc(N)c34)[nH]c12 (configuration not stated) 13.8%

Here is the next molecule: Cc1nc(NC(=O)N2CCC[C@H]2C(N)=O)sc1-c1ccnc(C(C)(C)C(F)(F)F)c1 72.2%

Next molecule: COc1cnc(N[S+](=O)([O-])c2ccc(N)cc2)nc1 117%

Field entry: CC(=O)Nc1ccc(OC[C@](C)(O)C(=O)Nc2ccc([N+](=O)[O-])c(C(F)(F)F)c2)cc1 90.8%

What do you have for COC1=C(N2CCNC(C)C2)C(=CC3=C1N(\C=C(C(O)=O)/C3=O)C4CC4)F (configuration not stated) ? 98.1%

---

- Test system: P12-Ichikawa
- method: cell viability relative to DMSO control; higher = less cytotoxic
- assayContext: RPMI 5 mM glucose + 10% FBS; 48 h; 0.000781 µM
reportedMetric: cell viability (%)
Kindly provide the numeric value in % only, without the unit symbol.

INSERT INTO assay_data (compound, measuredtarget, unittext, readoutnumber) VALUES
  ('Cc1nc(NC(=O)N2CCC[C@H]2C(N)=O)sc1-c1ccnc(C(C)(C)C(F)(F)F)c1', 'P12-Ichikawa', '%', 89.4),
  ('CC(C)C(C)/C=C/C(C)C1CCC2C3=CC=C4CC(O)CCC4(C)C3CCC21C (stereo unspecified)', 'P12-Ichikawa', '%', 99.1),
  ('Cc1cn2c(-c3cn[nH]c3)cnc2c(Nc2ccc(C(=O)N3CCNCC3)cc2F)n1', 'P12-Ichikawa', '%', 105),
  ('C/C=C(/C)C(=O)O[C@H]1C(C)=C2[C@H]([C@@H]1OC(=O)CCCCCCC)[C@@](C)(OC(C)=O)C[C@H](OC(=O)CCC)[C@@]1(O)[C@H]2OC(=O)[C@@]1(C)O', 'P12-Ichikawa', '%', 120),
  ('CC[C@H](CC[C@@H](C)[C@H]1CC[C@H]2[C@@H]3C\C=C/4C[C@@H](O)CC[C@]4(C)[C@H]3CC[C@]12C)C(C)C', 'P12-Ichikawa', '%', 112);

Note: attention shifts to another entry.
Entry N=C(CCSCc1csc(N=C(N)N)n1)N[S+](N)(=O)[O-] , system P12-Ichikawa: what cell viability was measured? 93.1

---

- Test system: P12-Ichikawa
- method: cell viability relative to DMSO control; higher = less cytotoxic
- assayContext: HPLM + 10% dialyzed FBS; 48 h; 0.00702 µM
reportedMetric: cell viability (%)
Express it in %; write the number only.

INSERT INTO assay_data (molecularstring, readoutnumber) VALUES
  ('CC1=C(/C=C/C(C)=C/C=C/C(C)=C/C=C/C=C(C)/C=C/C=C(C)/C=C/C2=C(C)CCCC2(C)C)C(C)(C)CCC1', 109),
  ('Cn1c(=O)c2c(ncn2C)n(C)c1=O.O=C(O)CC(O)(CC(=O)O)C(=O)O', 112),
  ('CCc1cncnc1N1CCN(Cc2nc3cc(C(F)(F)F)ccc3[nH]2)CC1', 100),
  ('COc1cc2c(cc1-c1c(C)noc1C)ncc1[nH]c(=O)n([C@H](C)c3ccccn3)c12', 111);

Note: attention shifts to another entry.
So what's the measured cell viability for this one? c1cncc(CN2CCC(n3ncc4c(N5CCOCC5)nc(-c5ccc6[nH]ccc6c5)nc43)CC2)c1 98.8

---

- System: SEM cells
- method: AUC of viability dose-response curve (% viability x log10 dose units); higher = less sensitive
- assayContext: HPLM + 10% dialyzed FBS; 48 h
reportedMetric: AUC of viability dose-response curve
Format: numeric value only, no unit, no commentary.

These solved cases illustrate the format of a correct answer.
INSERT INTO measurements (compound, readoutnumber) VALUES
  ('COC[C@H]1OC(=O)C2=COC3=C2[C@@]1(C)\C4=C(C5CCC(=O)[C@@]5(C)C[C@H]4OC(C)=O)/C3=O (stereo not given in full)', 397),
  ('COc1nccc(-c2c(-c3ccc(F)cc3)ncn2C2CCNCC2)n1', 460);

From here, focus on the item given below.
Any idea what its AUC of viability dose-response curve is? The compound is CN\1C(=O)/C(=C(\N=C1N2CCCC[S+]2([O-])=O)C(=O)NCC3=CC=C(F)C=C3)O 471
